# system: Recombinant truncated stromelysin (human sequence) (Homo sapiens)
# Construct: made in house; host or cells: E. coli
# Sequence (P08254 100-272 limits assumed): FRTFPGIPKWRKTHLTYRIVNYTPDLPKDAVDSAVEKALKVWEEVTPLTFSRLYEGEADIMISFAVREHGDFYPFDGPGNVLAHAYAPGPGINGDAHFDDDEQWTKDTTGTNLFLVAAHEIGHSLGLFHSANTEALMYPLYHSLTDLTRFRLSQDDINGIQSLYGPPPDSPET
# measurementDescription: Determination of Stromelysin Inhibition (cleavage of thiopeptide ester substrate, DTNB, 405 nm)
# Type: biochemical
# runConditions: Inhibitory potencies against stromelysin; 30 min assay at ambient temperature, pH 6.5; read-out: IC50
Assignment: determine reported pIC50 for the given molecules.
Numbers only, as −log10 of the molar value.

{"columns": ["molecule", "system", "pIC50"],
 "data": [
  ["CC(C)C[C@H]1C(=O)N[C@H](C(=O)NCCc2ccc(S(N)(=O)=O)cc2)Cc2ccc(cc2)OCCCC[C@@H]1C(=O)NO", "Recombinant truncated stromelysin (human sequence) (Homo sapiens)", 8.16],
  ["CC(C)C[C@H]1C(=O)N[C@H](C(=O)N2CCOCC2)Cc2ccc(cc2)OCCCC[C@@H]1C(=O)NO", "Recombinant truncated stromelysin (human sequence) (Homo sapiens)", 8.03],
  ["CC(C)C[C@H]1C(=O)N[C@H](C(=O)c2ccccc2)Cc2ccc(cc2)OCCCCC[C@@H]1C(=O)NO", "Recombinant truncated stromelysin (human sequence) (Homo sapiens)", 8.57],
  ["CNC(=O)[C@@H]1Cc2ccc(cc2)OCCCCC[C@H](C(=O)NO)[C@@H](CC(C)C)C(=O)N1", "Recombinant truncated stromelysin (human sequence) (Homo sapiens)", 8.21],
  ["CC(C)C[C@H]1C(=O)N[C@H](c2nc3ccccc3[nH]2)Cc2ccc(cc2)OCCCC[C@@H]1C(=O)NO", "Recombinant truncated stromelysin (human sequence) (Homo sapiens)", 8.44]
]}

Provide the reported pIC50 of each entry below, same order.
1. CNC(=O)[C@@H]1Cc2ccc(cc2)N(C(=O)OCc2ccccc2)CCCCC[C@H](C(=O)NO)[C@@H](CC(C)C)C(=O)N1
2. CC(C)C[C@H]1C(=O)N[C@H](C(=O)N2CCC[C@H]2C(=O)O)Cc2ccc(cc2)OCCCCC[C@@H]1C(=O)NO
3. CC(C)C[C@H]1C(=O)N[C@H](C(=O)NCCc2ccccc2)Cc2ccc(cc2)OCCCC[C@@H]1C(=O)NO
4. CC(C)C[C@H]1C(=O)N[C@H](C(=O)Nc2ccccc2)Cc2ccc(cc2)OCCCC[C@@H]1C(=O)NO
5. CNC(=O)[C@@H]1Cc2ccc(cc2)OCCCC[C@H](C(=O)NO)[C@@H](CC(C)C)C(=O)N1 [8 anti]
6. CCCc1ccc(CC[C@H]2C(=O)N[C@H](C(=O)NC)Cc3ccc(cc3)OCCCC[C@@H]2C(=O)NO)cc1
7. CC(C)C[C@H]1C(=O)N[C@H](C(=O)OCc2ccccc2)Cc2ccc(cc2)OCCCCC[C@@H]1C(=O)NO
8. CNC(=O)[C@@H]1Cc2ccc(cc2)OCCCCC[C@H](C(=O)O)[C@@H](CCCc2ccc(C)cc2)C(=O)N1

1. 9.21
2. 7.36
3. 8.14
4. 8.62
5. 8.41
6. 8.82
7. 7.04
8. 7.70

Just so you know, measured pIC50 for "CC(C)C[C@H]1C(=O)N[C@H](C(=O)NC2CC2)Cc2ccc(cc2)OCCCC[C@@H]1C(=O)NO" came out at 8.24
